system: SW-620 colon; assay: NCI tumour cell line growth inhibition, 48 h; in the data active means GI50 below about 0.43 µM; inactive means the rest
Possible outcomes: 1 for active, -1 for inactive

molecule	study-target	group-label
COc1ccc(N=C2NN=C(c3c[nH]c4ccccc34)CS2)cc1OC	SW-620 colon	-1
C#Cc1ccc(-n2c(/C=C/c3cc(OC)c(OC)c(OC)c3)nc3ncccc3c2=O)cc1	SW-620 colon	-1
O=C(CN=Cc1cccs1)CSC(c1ccccc1)c1ccccc1	SW-620 colon	-1
CCNC(=O)Oc1ccc(/C(=C(\C)c2ccc(Cl)cc2)c2ccc(OCCN3CCCCC3)cc2)cc1	SW-620 colon	-1
COc1cc(C2c3cc4c(cc3[C@@H](Nc3cccc(O)c3)C3COC(=O)[C@H]23)OCO4)cc(OC)c1O (some centres undefined)	SW-620 colon	-1
CCCCCCCCCCCCNC(=O)[C@H]1CSC(c2ccc(OC)c(F)c2)N1 (some centres undefined)	SW-620 colon	-1
N#Cc1ccc(N2Cc3cc(Cl)ccc3OC3=C2C(=O)N(Cc2ccccc2)C3=O)cc1	SW-620 colon	1
O=C(Nc1ccccc1)Nc1ccccc1CNc1nc(Nc2ccc(OCCN3CCCC3)cc2)ncc1Cl	SW-620 colon	-1
COC(=O)C1=C(O)C(C(=O)OC)[C@@]2(O)[C@@H](C(=O)OC)C(c3ccc(OC(=O)C(CC(C)C)NC(C)=O)cc3)C[C@@H]1[C@@H]2C(=O)OC (some centres undefined)	SW-620 colon	-1

====

tested on: U251 CNS
Below, each of the compounds is paired with its reported GI50 value.

compound	GI50
CCN(CC)CCOc1ccc(C2=C(c3ccccc3)CCc3cc(OC)ccc32)cc1	2.29 µM
COc1ccc(N=C2NN=C(c3c[nH]c4ccccc34)CS2)cc1OC	6.38 µM
COc1cc(C(=O)/C=C/c2c(C(F)(F)F)nc3sccn23)cc(OC)c1OC	1.38 µM
CCCCCCCCCCCCCCCC(=O)N[C@H]1CCc2cc(OC)c(OC)c(OC)c2-c2ccc(SC)c(=O)cc21	2.64 µM
CCOc1cccnc1/C=N/NC(N)=S	2.9 µM
CCC1(N2C(=O)c3c(F)c(F)c(F)c(F)c3C2=O)C(=O)NC(=O)N(c2ccccc2)C1=O (stereo not given)	1.53 µM
C=CC[PH+](c1ccccc1)c1ccccc1.C=CC[PH+](c1ccccc1)c1ccccc1.[Cl][Pt][Cl]	7.45 µM
Cc1cc2c(cc1Cl)SC1=NN(C)C(c3ccccc3O)N1S2(=O)=O (stereo not given)	47.7 µM
COc1ccc(S(=O)(=O)NCCNc2nccc(-c3c(-c4ccccc4)nc4sccn34)n2)cc1	5.17 µM
O=C1/C(=C/c2ccccc2)CN(C(=O)Oc2ccc([N+](=O)[O-])cc2)C/C1=C\c1ccccc1	1.56 µM

====

Each item that follows carries a reported TGI.
tested on: OVCAR-8 ovarian; assay: NCI tumour cell line growth inhibition, 48 h
endpoint: TGI

molecule	endpoint	experimental-result
CC(=O)Nc1ccc(-n2cnc3cc(-c4ccc(OCCN5CCCCC5)cc4)ccc32)cc1	TGI	14.8 µM
CCN1CC2(C)CC[C@@H](OC)C34[C@@H]2[C@H](OC(C)=O)C2(OCO[C@@]25C[C@H](OC)C2C[C@]3(O)[C@@H]5[C@H]2O)[C@H]14	TGI	> 100 µM
Cc1csc(Nc2nc(-c3cccc(Cl)c3)nc(C(Cl)(Cl)Cl)n2)n1	TGI	> 33.3 µM
C/C=C\C(CC(=O)O)CC(=O)NCCC1CN(S(=O)(=O)C(F)(F)F)c2ccccc21 (centres undefined)	TGI	> 100 µM
CN1CCN(C(=S)SCN2C(=O)c3ccccc3S2(=O)=O)CC1	TGI	> 100 µM
COC(=O)C(Cc1ccccc1)NC(=O)CCCNC(=O)OCc1ccccc1 (centres undefined)	TGI	> 100 µM
COc1cccc(N2N=C3c4ccccc4-n4c(nc5ccccc54)C3C2N)c1 (centres undefined)	TGI	> 100 µM
O=C(Nc1ccccc1)N1N=C(c2ccccc2)C1c1ccccc1 (centres undefined)	TGI	> 100 µM
CN(C)CCn1c(=O)c2ccc(NCCNCCO)c3c(=O)c4cc(O)ccc4n(c1=O)c23	TGI	7.47 µM

====

tested on: SR leukemia; test: NCI tumour cell line growth inhibition, 48 h
Readings of TGI for the listed compounds
endpoint: TGI (µM)

compound	result-operator	experimental-result
CN1CC(C(=O)NC2(C)OC3(O)C4CCCN4C(=O)C(Cc4ccccc4)N3C2=O)C=C2c3cccc4[nH]cc(c34)CC21 (stereo not given)	=	60.7
CC(C)(C)c1ccc(S(=O)(=O)N[C@H]2CC[C@H]3[C@@H]4CCc5cc(O)ccc5[C@H]4CC[C@]23C)cc1	=	6.04
N#CC1(C#N)C2C=CC(C3CCC=C32)C1(C#N)C#N (stereo not given)	>	10
Cc1cnc2[nH]c(-c3ccccc3)cc(=O)c2c1	>	100
Cc1cc2c(cc1Cl)SC1=NN(C)C(c3ccccc3O)N1S2(=O)=O (stereo not given)	>	100
CN(C)CCNC(=O)c1cccc2c(NC(CS)C(=O)O)c3ccccc3nc12 (stereo not given)	>	100
CCOc1cccnc1/C=N/NC(N)=S	=	12.3
COc1ccc(N(Cc2cc(OC)c(OC)c(OC)c2)C2OC(=O)c3ccccc32)cc1 (stereo not given)	>	100
O=c1[nH]c(-c2ccccn2)nc2sc3c(c12)CCCCCC3	>	100
COC(=O)C1(Cc2ccccc2)Cc2ccccc2C1=O (stereo not given)	=	78.3

====

test system: CAKI-1 renal; experiment: NCI tumour cell line growth inhibition, 48 h
endpoint: GI50

compound	endpoint	experimental-result
CCOC(=O)Cc1csc(NC(=O)C(OC(=O)c2ccc(N)cc2)c2ccccc2)n1 (stereo not given)	GI50	39.6 µM
CC1SC2(CCCCC2)N(NC(=O)c2[nH]c3ccc(F)cc3c2-c2ccccc2)C1=O (stereo not given)	GI50	> 100 µM
C=C(C)[C@@H]1CCC[C@]2(C(=O)O)CC[C@]3(C)[C@@H](CC[C@@H]4[C@@]5(C)C/C(=C/c6ccncc6)C(=O)C(C)(C)[C@@H]5CC[C@]43C)[C@@H]12	GI50	3.34 µM
CCCCCCCCCCCCNC(=O)[C@H]1CSC(c2ccc(OC)c(F)c2)N1 (stereo not given in full)	GI50	1.56 µM
CCCCCCCCCCCCCCCC(=O)N[C@H]1CCc2cc(OC)c(OC)c(OC)c2-c2ccc(SC)c(=O)cc21	GI50	6.7 µM

====

Property: log10 of TGI; scope: individual compounds
system: A549 NSCLC; experiment: NCI tumour cell line growth inhibition, 48 h
endpoint: log10 of TGI (log10 of the value in µM)

compound	log10 of TGI
N#Cc1ccc(N2Cc3cc(Cl)ccc3OC3=C2C(=O)N(Cc2ccccc2)C3=O)cc1	1.43
C=C1C(=O)O[C@H]2C(=O)[C@H](C)CCC[C@@](C)(O)/C=C\C[C@@]3(C)O[C@@H]3C[C@@H]12	1.59
C=C(C)[C@]12CC(C)C34OC(/C=C\C=C\CCCCCCCCC)(O[C@@H]1[C@@H]3[C@@H]1O[C@]1(CO)[C@@H](O)[C@]1(O)C(=O)C(C)=C[C@@H]41)O2 (some centres undefined)	1.32
CN(C)CCNc1nc2ccccc2c2c1C(=O)c1ccccc1-2	0.47
C=CCOn1c(C=C)nc2c(C)cccc21	1.16
O=C(Nc1ccccc1)Nc1ccccc1CNc1nc(Nc2ccc(OCCN3CCCC3)cc2)ncc1Cl	1.34
CCCCCCN(CCCCCC)CC(O)c1cccc2ccc(Cl)cc12 (centres undefined)	1.42
C=CCN1C(=O)/C(=C/c2ccc(Cl)cc2)N=C1SC1OC(COC(C)=O)C(OC(C)=O)C(OC(C)=O)C1OC(C)=O (centres undefined)	1.82

====

Quick reference: TGI of the listed items.
system: OVCAR-3 ovarian; experiment: NCI tumour cell line growth inhibition, 48 h

molecule	study-target	TGI
C=C(CC1(CC(=C)c2ccc(C(=O)O)cc2)C(=O)N(C)C(=O)N(C)C1=O)c1ccc(C(=O)O)cc1	OVCAR-3 ovarian	> 100 µM
C=C(CCC(C(=O)O)C1CCC2(C)C3=C(CCC12C)C1(C)CCC(O)C(C)(C)C1CC3)C(C)C (stereo unspecified)	OVCAR-3 ovarian	> 100 µM
CC(=O)OCC1OC(n2c3c(c(-c4ccco4)c(C#N)c2=S)CCCC3)C(OC(C)=O)C(OC(C)=O)C1OC(C)=O (stereo unspecified)	OVCAR-3 ovarian	> 31.6 µM
Cc1nc(C(N)=S)sc1C(=O)CC(=O)C(=O)Nc1cccc(Cl)c1C	OVCAR-3 ovarian	> 100 µM
c1ccc(COc2ncccc2C2SCCCS2)cc1	OVCAR-3 ovarian	> 100 µM
COC(=O)c1ccc(OCc2ccc3nc(-c4ccccc4)c(Cl)nc3c2)cc1	OVCAR-3 ovarian	> 100 µM
COc1ncnc2c(-c3ccco3)cn(COCc3ccccc3)c12	OVCAR-3 ovarian	> 50 µM
C=CCN1C(=O)/C(=C/c2ccc(Cl)cc2)N=C1SC1OC(COC(C)=O)C(OC(C)=O)C(OC(C)=O)C1OC(C)=O (stereo unspecified)	OVCAR-3 ovarian	> 100 µM
O=C(CN=Cc1cccs1)CSC(c1ccccc1)c1ccccc1	OVCAR-3 ovarian	48.1 µM
CSc1nc(Br)nc2c1ncn2C1CC(Oc2ccc(C)cc2)C(COc2ccc(C)cc2)O1 (stereo unspecified)	OVCAR-3 ovarian	> 100 µM
Clc1ncc(C(Cl)(Cl)Cl)nc1-c1ccccc1	OVCAR-3 ovarian	3.1 µM
c1ccc(C/C(=N\Nc2nc3ccccc3o2)c2ccccn2)cc1	OVCAR-3 ovarian	0.0301 µM
COC(=O)C1CCC(=NC2c3ccccc3-c3ccccc32)N1 (stereo unspecified)	OVCAR-3 ovarian	> 100 µM
CC(=O)Nc1ccc(-n2cnc3cc(-c4ccc(OCCN5CCCCC5)cc4)ccc32)cc1	OVCAR-3 ovarian	10.4 µM
O=[N+]([O-])c1cccc(-c2ncc(-c3ccc(Cl)cc3Cl)[nH]2)c1	OVCAR-3 ovarian	5.93 µM
O=C(NO)C(O)C(O)C(O)C(O)CO (stereo unspecified)	OVCAR-3 ovarian	> 100 µM
CCOc1cc(C=O)ccc1O	OVCAR-3 ovarian	> 100 µM
COC1=CC2(C=CC1=O)CCN=c1c(O)c3c(c(O)c12)=NC=N3 (stereo unspecified)	OVCAR-3 ovarian	> 100 µM
CN1c2ccccc2C(=O)Nc2cnc(Cl)nc21	OVCAR-3 ovarian	> 100 µM
N#Cc1ccc(N2Cc3cc(Cl)ccc3OC3=C2C(=O)N(Cc2ccccc2)C3=O)cc1	OVCAR-3 ovarian	1.54 µM
CN1CC(C(=O)NC2(C)OC3(O)C4CCCN4C(=O)C(Cc4ccccc4)N3C2=O)C=C2c3cccc4[nH]cc(c34)CC21 (stereo unspecified)	OVCAR-3 ovarian	43.3 µM
